System: HMLE_sh_eGFP viability, CellTiter-Glo luminescence, 72 h
procedure text: cytotoxicity in HMLE control line with eGFP shRNA, dose response, counter-screen for HMLE_sh_ECad selective toxicity project, cell-based, HMLE_sh_eGFP, luminescence (AID 463074);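 also: counterscreen control line to flag general toxicity for the HMLE_sh_ECad screen; potency for loss of viability as luminescence drops below DMSO wells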

{"compound": "CN1CCN(CCCN2c3ccccc3Sc3ccc(Cl)cc32)CC1", "target system": "HMLE_sh_eGFP viability, CellTiter-Glo luminescence, 72 h", "AC50": "5.25 µM"}
{"compound": "O=C(Nc1cccc(NC(=O)c2ccc([N+](=O)[O-])o2)c1)c1ccco1", "target system": "HMLE_sh_eGFP viability, CellTiter-Glo luminescence, 72 h", "AC50": "7.23 µM"}
{"compound": "CC(C)c1cccc(C(C)C)c1OC(=O)[C@H]1OC(c2ccc(Br)cc2)=C[C@@H]1c1ccc(Br)cc1", "target system": "HMLE_sh_eGFP viability, CellTiter-Glo luminescence, 72 h", "AC50": "4.64 µM"}
{"compound": "C#CCOCCOCCOCCNc1nc(N2CCN(C(=O)CCCCCCCCCCNC(=O)Cn3cc(C[C@@H](C)O)nn3)CC2)nc(N2CCN(C(=O)CCCCCCCCCCNC(=O)[C@@H]([C@H](C)O)n3cc(C)nn3)CC2)n1", "target system": "HMLE_sh_eGFP viability, CellTiter-Glo luminescence, 72 h", "AC50": "4.83 µM"}
{"compound": "NC(=O)CC(NC(=O)Cc1cccc2ccccc12)c1ccc(NCc2ccc(F)cc2)c([N+](=O)[O-])c1 (centres undefined)", "target system": "HMLE_sh_eGFP viability, CellTiter-Glo luminescence, 72 h", "AC50": "19.8 µM"}
{"compound": "CC(/C=C1\\SC(=O)N(CC(=O)Nc2cccc(O)c2)C1=O)=C\\c1ccccc1", "target system": "HMLE_sh_eGFP viability, CellTiter-Glo luminescence, 72 h", "AC50": "13.6 µM"}
{"compound": "COc1ccc(-c2sc3ccc(N4CCOCC4)cc3c2C#CC2(O)CCCCC2)cc1", "target system": "HMLE_sh_eGFP viability, CellTiter-Glo luminescence, 72 h", "AC50": "2.94 µM"}
{"compound": "CCc1ccc2oc(C(=O)NCC(c3ccc(OC)cc3)N3CCCCC3)c(C)c2c1 (centres undefined)", "target system": "HMLE_sh_eGFP viability, CellTiter-Glo luminescence, 72 h", "AC50": "6.09 µM"}
{"compound": "COc1cccc(/C=N/NC(=O)c2[nH]c(C)c(C(=O)N/N=C/c3cccc(OC)c3O)c2C)c1O", "target system": "HMLE_sh_eGFP viability, CellTiter-Glo luminescence, 72 h", "AC50": "4.53 µM"}

====

Test system: HMLE_sh_eGFP viability, CellTiter-Glo luminescence, 72 h
procedure text: cytotoxicity in HMLE control line with eGFP shRNA, dose response, counter-screen for HMLE_sh_ECad selective toxicity project, cell-based, HMLE_sh_eGFP, luminescence (AID 463074);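 also: counterscreen control line to flag general toxicity for the HMLE_sh_ECad screen; potency for loss of viability as luminescence drops below DMSO wells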
The source made the active and inactive calls.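 The calls were made as follows: active = AC50 no more than tenfold above the top dose tested, or full inhibition at every dose with a flat fit (cut at about 19 µM in these data); inconclusive = flat curve fit with inhibition between 30% and 70%, or poor fit; inactive = AC50 more than tenfold above the top dose tested.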
Classes used: y for active, n for inactive

{"compound": "Cc1ccc(-c2nnc(Sc3nc4ccccc4o3)c3ccccc23)cc1", "target system": "HMLE_sh_eGFP viability, CellTiter-Glo luminescence, 72 h", "classification": "y"}
{"compound": "CC(Cc1ccccc1)NCCC(c1ccccc1)c1ccccc1 (configuration not stated)", "target system": "HMLE_sh_eGFP viability, CellTiter-Glo luminescence, 72 h", "classification": "y"}
{"compound": "Nc1c(S(=O)(=O)c2cccs2)c2nc3ccccc3nc2n1/N=C/c1cccc(O)c1", "target system": "HMLE_sh_eGFP viability, CellTiter-Glo luminescence, 72 h", "classification": "y"}
{"compound": "CCc1c(C)sc(NC(=O)/C=C/c2ccc3c(c2)OCO3)c1C(=O)OC", "target system": "HMLE_sh_eGFP viability, CellTiter-Glo luminescence, 72 h", "classification": "y"}
{"compound": "CCCCCc1cc(=O)oc2c(C(CCN3CCCC(C)C3)c3ccc4c(c3)OCO4)c(OC)cc(OC)c12 (configuration not stated)", "target system": "HMLE_sh_eGFP viability, CellTiter-Glo luminescence, 72 h", "classification": "y"}
{"compound": "C=C(CC[C@@H](O)C(C)(C)O)[C@H]1CC[C@]2(C)[C@@H]1CCC1[C@@]3(C)CCC(=O)C(C)(C)C3CC[C@]12C (some centres not stated)", "target system": "HMLE_sh_eGFP viability, CellTiter-Glo luminescence, 72 h", "classification": "y"}
{"compound": "COC(=O)Nc1ccc(S(=O)(=O)N2c3ccccc3CCC2C)cc1 (configuration not stated)", "target system": "HMLE_sh_eGFP viability, CellTiter-Glo luminescence, 72 h", "classification": "y"}
{"compound": "Cc1ccc(NC(=O)Cn2c(O)c(N=NC(=O)c3cc4ccccc4cc3O)c3ccccc32)cc1", "target system": "HMLE_sh_eGFP viability, CellTiter-Glo luminescence, 72 h", "classification": "y"}
{"compound": "COc1ccccc1-c1cc(C(F)(F)F)nc(S(C)(=O)=O)n1", "target system": "HMLE_sh_eGFP viability, CellTiter-Glo luminescence, 72 h", "classification": "y"}
{"compound": "COc1cc2sc(-c3ccccc3OC)c(-c3ccc(OCCN4CCCCC4)cc3)c2cc1OC", "target system": "HMLE_sh_eGFP viability, CellTiter-Glo luminescence, 72 h", "classification": "y"}
{"compound": "CC1(C)C=Cc2c(c3c(c4c(=O)c(-c5ccc(O)cc5)coc24)OC(C)(C)CC3)O1", "target system": "HMLE_sh_eGFP viability, CellTiter-Glo luminescence, 72 h", "classification": "y"}
{"compound": "COc1ccccc1OCCN1CSC(=S)N(C)C1", "target system": "HMLE_sh_eGFP viability, CellTiter-Glo luminescence, 72 h", "classification": "y"}
{"compound": "NC(=O)CC(NC(=O)c1ccc(Br)cc1)c1ccc(NCc2ccc(F)cc2)c([N+](=O)[O-])c1 (configuration not stated)", "target system": "HMLE_sh_eGFP viability, CellTiter-Glo luminescence, 72 h", "classification": "y"}
{"compound": "COc1ccc(-c2cc(C(=O)N3CC4(C)CC3CC(C)(C)C4)no2)cc1 (configuration not stated)", "target system": "HMLE_sh_eGFP viability, CellTiter-Glo luminescence, 72 h", "classification": "y"}
{"compound": "O=c1c2cn[nH]c2nc(SCc2ccccc2F)n1-c1ccc(Br)cc1", "target system": "HMLE_sh_eGFP viability, CellTiter-Glo luminescence, 72 h", "classification": "y"}
{"compound": "COc1ccc(CCCC(=O)N/N=C/c2cccc(OC)c2O)cc1C", "target system": "HMLE_sh_eGFP viability, CellTiter-Glo luminescence, 72 h", "classification": "y"}
{"compound": "Cc1ccc(C)c(OCCCCN2CCNCC2)c1C", "target system": "HMLE_sh_eGFP viability, CellTiter-Glo luminescence, 72 h", "classification": "y"}
{"compound": "Clc1ccc2nnnc(-c3ccccc3)c2c1", "target system": "HMLE_sh_eGFP viability, CellTiter-Glo luminescence, 72 h", "classification": "y"}
{"compound": "Cc1cccc(N2CCN(C(=S)Nc3ccc4nc(N5CCN(C)CC5)cc(C)c4c3)CC2C)c1 (configuration not stated)", "target system": "HMLE_sh_eGFP viability, CellTiter-Glo luminescence, 72 h", "classification": "y"}
{"compound": "CCn1c(=O)c(C(=O)NCCc2ccccc2)c(O)c2ccccc21", "target system": "HMLE_sh_eGFP viability, CellTiter-Glo luminescence, 72 h", "classification": "y"}
{"compound": "CN(C)c1ccc(/C=C(\\Cl)c2nc3ccccc3s2)cc1", "target system": "HMLE_sh_eGFP viability, CellTiter-Glo luminescence, 72 h", "classification": "y"}
{"compound": "Nc1cc(Cl)ccc1Oc1ccc2ccccc2c1", "target system": "HMLE_sh_eGFP viability, CellTiter-Glo luminescence, 72 h", "classification": "n"}
